System: SF-539 CNS
Experiment: NCI-60 one-dose screen, 48 h
Conditions: 10 µM unless noted
This is part of a sample that, as a whole, favours compounds with a hit. Of some 83,000 tested, about 20% had one in any assay. Calls of active or inactive are those of the source. Rule for the calls: active = growth percent below 10; inactive = the rest.
Possible outcomes: active, inactive

Molecule | Answer label
CCN1C/C(=N\S(=O)(=O)c2ccccc2)N(CC)C1=S | inactive
COc1c([C@@H](CC(C)C)OC(C)=O)ccc2c1C(=O)OCc1cc(C)cc(O)c1O2 | inactive
N#Cc1c(-c2ccccc2)cc(-c2c[nH]c3ccccc23)nc1-c1c[nH]c2ccccc12 | inactive
Cc1cc(=O)n2nc(-c3c[nH]c4ccccc34)sc2n1 | inactive
CCOC(=O)/C(F)=C/C1CC1C1CCCCC1 (stereo unspecified) | inactive
Oc1ccc(-c2nnc(SCc3ccc(O)c4ncccc34)n2-c2ccccc2)cc1 | active
NS(=O)(=O)c1ccc(Nc2nc(N/N=C/c3ccc(C(F)(F)F)cc3)nc(Nc3ccccc3)n2)cc1 | inactive
CCNCc1c(-c2cccc(OC(F)(F)F)c2)[nH]c2ccc(N3CCCC3)cc2c1=O | active
C#C[C@]1(O)CC[C@H]2[C@@H]3CC=C4c5sc(Nc6cccc(C)n6)nc5CC[C@]4(C)[C@H]3CC[C@@]21C | active
N#C/C(=C\c1ccc(-c2ccc(F)cc2)o1)C(=O)Nc1ncc(Cc2ccc(Cl)cc2Cl)s1 | active
CC(=O)NC(C)(C)C(=O)N1CCC[C@H]1C(=O)NC(C)(C)C(=O)N[C@@H](C)C(=O)NC(C)(C)C(=O)NC(C)(C)C(=O)N[C@@H](CCC(N)=O)C(=O)NC(C)(C)C(=O)N[C@H](C(=O)NC(C)(C)C(=O)NCC(=O)N[C@@H](CC(C)C)C(=O)NC(C)(C)C(=O)N1CCC[C@H]1C(=O)N[C@H](C(=O)NC(C)(C)C(=O)NC(C)(C)C(=O)N[C@@H](CCC(N)=O)C(=O)N[C@@H](CCC(N)=O)C(=O)N[C@H](CO)Cc1ccccc1)C(C)C)C(C)C | inactive
O=S(=O)(Nc1cc(Cl)cc(Cl)c1)c1ccc(-c2cnc(C3CC3)o2)cc1 | inactive
O=C(/C=C/Nc1ccc(S(=O)(=O)O)cc1)c1ccc(F)cc1 | inactive
CCOc1c(C#N)c(Nc2ccc(S(N)(=O)=O)cc2)c(C#N)c2nnc(C)n12 | inactive
COc1ccc(NC(=O)[C@H](C)N)cc1C(=O)Nc1cccc(-c2cc(=O)c3c(OC)c(OC)c(OC)cc3o2)c1 | inactive
COc1ccc2oc3c4[nH]c5ccccc5c4c4c(c3c2c1)C(=O)N(O)C4=O | inactive

----------
Readings of growth for the listed compounds
System: NCI-H226 lung
Assay: NCI-60 one-dose screen, 48 h (100 = growth as untreated, 0 = no growth, -100 = all killed)
Details: 10 µM unless noted
Procedure: Growth inhibition of the NCI-H226 human Non-Small Cell Lung tumor cell line is measured as a screen for anti-cancer activity. Cells are grown in 96 well plates and exposed to the test compound for 48 hours. Compounds are tested at a single concentration, which is 10^-5 M for most compounds. The reported endpoint is percent growth (GI% or GIPRCNT), where numbers from 0 - 100% represent growth inhibition, and numbers from -100% - 0 represent cell death. […]
About 83,000 compounds went through this panel and 20% of them were active in at least one assay; those are over-represented in the sample as a whole.

Chemical string | Tgt | Units label | growth
Cc1ccc(/C=C/CC(=O)Nc2ccc(C(=O)Nc3ccc(F)cc3N)nc2)cn1 | NCI-H226 lung | % | 50.3
Cc1nn(-c2ccc(Br)cc2)c2nc(CCl)[nH]c(=O)c12 | NCI-H226 lung | % | 102
Clc1ccccc1/C=C/c1nn2c(-c3ccncc3)nnc2s1 | NCI-H226 lung | % | 91
CCN(CC)CCN1C(=O)c2c(c3c4cccnc4[nH]c3c3ccc4ccccc4c23)C1=O | NCI-H226 lung | % | 79.4
O=C(N/N=C\c1ccc(Cl)cc1)c1ccc2nc(-c3ccc(Br)cc3)[nH]c2c1 | NCI-H226 lung | % | 9.5
